B1: glmS ribozyme (parent)
chain: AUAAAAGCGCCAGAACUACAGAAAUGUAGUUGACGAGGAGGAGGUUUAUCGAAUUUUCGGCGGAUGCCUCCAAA

Variants of: B1
experiment: self-cleavage kobs at 160 uM GlcN6P; higher = faster cleavage; RNA array
applied.conditions: with glucosamine-6-phosphate
Fewer inactive variants are shown than the library holds.
Let's look at some variants and their measured self-cleavage kobs at 160 uM GlcN6P.

Here are 8 variants together with their reported answers.
C16G U46A    4.2e-05 s⁻¹
A39C G40C A52G    < 1e-05 s⁻¹
G9C G32U A39U G41U    < 1e-05 s⁻¹
G44C C68A    < 1e-05 s⁻¹
A39C G51A G63C    < 1e-05 s⁻¹
A53G U54A    0.00267 s⁻¹
G7U G37A A48C    < 1e-05 s⁻¹
C10U A39U C67G    < 1e-05 s⁻¹

Returns the measured self-cleavage kobs at 160 uM GlcN6P for the input variant. Input: G7A G35A G51C
< 1e-05 s⁻¹

Can you share its self-cleavage kobs at 160 uM GlcN6P? I mean this variant: U56C C67U
< 1e-05 s⁻¹

Request the reported self-cleavage kobs at 160 uM GlcN6P associated with A14G A33C C70U
< 1e-05 s⁻¹
